- experimental_protocol: Aqueous solubility of compound in water at pH 7.4 incubated at 20 degC by HPLC-UV analysis
- Format: physicochemical
assay_endpoint: solubility (mg/mL)

COc1ccc(N(CCN2CCCC2)S(=O)(=O)c2ccc3c(c2)c2ccccc2n3C)c(OC)n1.Cl :: 0.6
COc1ccc(N(CCCn2ccnc2)S(=O)(=O)c2ccc3c(c2)c2ccccc2n3C)c(OC)n1.Cl :: 18.4
COc1ccc(N(CCN(C)C)S(=O)(=O)c2ccc3c(c2)c2ccccc2n3C)c(OC)n1.Cl :: 29.1
COc1ccc(N(C(=O)CCN2CCN(C)CC2)S(=O)(=O)c2ccc3c(c2)c2ccccc2n3C)c(OC)n1.Cl :: 17.6
COc1ccc(N(CCN2CCN(C)CC2)S(=O)(=O)c2ccc3c(c2)c2ccccc2n3C)c(OC)n1.Cl :: 25.7

# credit: ChEMBL document CHEMBL4680211
